The values you see were collected from paper PMC10709440.

# testedOn: Drosophila OR10a (Drosophila melanogaster)
# Construct: expressed in transfected cells
# Sequence (Q9VYZ1 1-406): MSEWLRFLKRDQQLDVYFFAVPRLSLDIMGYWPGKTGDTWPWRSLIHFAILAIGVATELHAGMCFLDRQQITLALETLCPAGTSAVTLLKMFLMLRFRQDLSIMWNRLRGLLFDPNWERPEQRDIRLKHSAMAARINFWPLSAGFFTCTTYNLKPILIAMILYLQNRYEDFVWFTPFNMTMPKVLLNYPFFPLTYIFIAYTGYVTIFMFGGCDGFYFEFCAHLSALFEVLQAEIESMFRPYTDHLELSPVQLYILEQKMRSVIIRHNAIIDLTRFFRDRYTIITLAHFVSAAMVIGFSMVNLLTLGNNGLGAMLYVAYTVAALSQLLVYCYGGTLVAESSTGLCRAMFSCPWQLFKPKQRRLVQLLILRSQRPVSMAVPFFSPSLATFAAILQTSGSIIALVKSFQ
# Sequence (Q9VNB5 1-486 partner): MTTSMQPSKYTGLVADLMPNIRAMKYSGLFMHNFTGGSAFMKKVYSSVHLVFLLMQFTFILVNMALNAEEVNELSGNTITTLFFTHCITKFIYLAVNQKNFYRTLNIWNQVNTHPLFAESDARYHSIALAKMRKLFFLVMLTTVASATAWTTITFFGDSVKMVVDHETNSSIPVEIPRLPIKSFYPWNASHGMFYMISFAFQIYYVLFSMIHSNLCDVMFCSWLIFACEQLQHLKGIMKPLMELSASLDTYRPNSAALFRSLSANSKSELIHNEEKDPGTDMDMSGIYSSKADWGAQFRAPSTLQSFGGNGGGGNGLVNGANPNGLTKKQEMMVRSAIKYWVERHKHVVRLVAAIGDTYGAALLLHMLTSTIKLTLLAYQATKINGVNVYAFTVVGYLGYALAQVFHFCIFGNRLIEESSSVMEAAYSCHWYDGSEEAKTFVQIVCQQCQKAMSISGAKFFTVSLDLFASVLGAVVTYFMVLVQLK
# assayNotes: Calcium ion fluorescence (GCaMP6) assay, OR10a stable HEK293 cell line
# Type: cell-based
# runParameters: HEK293, read-out: OR10a response (VUAA1-normalized response), VOC concentration 100 μM
# Experimental: These VUAA1 normalized ∆F values were used to compare the different receptors and ligands. The concentration-dependent effect of the reference ligands on their cognate cell lines was examined in more detail. Twelve different ligand concentrations were measured on each cell line in an overall 0.01 μM to 100 μM concentration range with 5 repetitions with three technical replicates each time. […]
Reported activation at 100 µM values for a set of molecules
Answer with a number only, understood to be in %.

A selection of reference data follows.
molecule	measureUnit	reportedValue
Cc1cccc(O)c1 [3-methylphenol]	%	13
CC(=O)OCC(C)C [isobutyl acetate]	%	18
CCCCCCCCCC=O [decanal]	%	0
C=CC(O)C/C=C\CC (stereo not drawn) [(5Z)-octa-1,5-dien-3-ol]	%	0
CCCCCC(C)=O [2-heptanone]	%	0
C=C1CC[C@H]2O[C@]2(C)CC[C@@H]2[C@@H]1CC2(C)C [(-)-caryophyllene oxide]	%	0

Entry COc1cccc(OC)c1 [1,3-dimethoxy benzene] : reported activation at 100 µM = ?
0

Request the reported activation at 100 µM associated with CCCCC(C)O (stereo not drawn) [2-hexanol]
0

Requested field: activation at 100 µM. Item: CCCCCCCCC(CO)CCCCCC (stereo not drawn) [2-hexyl-1-decanol]
19

Sample C=C1CCC2CC1C2(C)C (stereo not drawn) [beta-pinene] — what was its activation at 100 µM?
9

Fill in: activation at 100 µM of O=Cc1ccccc1 [benzaldehyde] is ___
17
